Data provenance is PubChem BioAssay (NCI).

- Tested on: SF-268 CNS
- assay_procedure: NCI-60 one-dose screen, 48 h (100 = growth as untreated, 0 = no growth, -100 = all killed)
- condition: 10 µM unless noted
This is part of a sample that, as a whole, favours compounds with a hit. Of some 83,000 tested, about 20% had one in any assay.
quantity_measured: growth (%)
# value in %; strip the unit string

Please report the recorded growth for COc1ccc(/C=N/NC(=O)c2cnn3c2NC(c2ccccc2)C3)cc1OC (stereo not given) .
73.7

Thanks! And `COc1ccc(NC(=O)c2cc(NCc3cc(O)ccc3O)ccc2O)cc1` ?
80.8

Thanks! And `CCN1Cc2nc3sc(C)c(C)c3c(=O)n2C=C1C` ?
101

Thanks! And `O=C(NCCNc1nccc(-c2c(-c3cccc(F)c3)nc3sccn23)n1)c1ccc(Cl)cc1` ?
67.9

Thanks! And `COc1ccc(-c2[nH][nH]c(=O)c2-c2nc3ccccc3s2)cc1` ?
101

Thanks! And `Nc1c(S(=O)(=O)O)cc2c3c(cccc13)C(=O)OC2=O` ?
109

Thanks! And `C=C1C(=O)O[C@H]2[C@H]1CC/C(COC(=O)NCc1c[nH]c3ccc(Br)cc13)=C\CC[C@@]1(C)O[C@@H]21` ?
3.85

Thanks! And `COc1cc2nc(-c3ccc(C(F)(F)F)cc3)cc(OCCN3CCCCC3)c2cc1OC` ?
75.8

Thanks! And `COc1cc(NC(=O)CSc2nc3ccc(C)cc3c(=O)n2Cc2ccccc2)cc(OC)c1OC` ?
69.1

Thanks! And `COc1cc2oc(-c3cccc(C(=O)Nc4ccc(Br)cc4)c3)cc(=O)c2c(OC)c1OC` ?
61.8

Thanks! And `COc1ccc2c(c1)oc1c(C)c3c(c(C)c12)C(=O)N(CCN1CCOCC1)C3=O` ?
99.5

Thanks! And `CCOC(=O)c1ccc2c(c1)ncn2-c1ccc(NC(=O)Nc2cccc(C)c2)cc1` ?
95.4

Thanks! And `COc1ccc(Cc2cnc(NC(=O)c3ccc4c(c3)OCCO4)s2)cc1` ?
34.8

Thanks! And `C=C1C(=O)O[C@H]2[C@H]1CC/C(COC(=O)NCc1c[nH]c3ccc(Cl)cc13)=C\CC[C@@]1(C)O[C@@H]21` ?
-3.81

Thanks! And `COc1ccc(C(=O)CC#N)cc1` ?
107

Thanks! And `CCNC(=O)Oc1ccc(/C(=C(\C)c2ccccc2)c2ccc(OCCN(CC)CC)cc2)cc1` ?
80.1

Thanks! And CCOC(=O)CC1CSC(N/N=C/c2ccc(-n3cccn3)cc2)=N1 (stereo not given) ?
103

Thanks! And `C=C1C(=O)O[C@H]2[C@H]1CC/C(COC(=O)NCc1c[nH]c3ccc(F)cc13)=C\CC[C@@]1(C)O[C@@H]21` ?
36

Thanks! And `Cc1c(C)c([N+](=O)[O-])c(C)c([N+](=O)[O-])c1C` ?
106

Thanks! And `c1ccc2c(-c3c[nH]c4ccccc34)c3c(cc2c1)[nH]c1ccccc13` ?
66.7

Thanks! And `OCc1cnccc1NCCCCOc1ccc(Oc2ccccc2)cc1` ?
80.9

Thanks! And `O=C1c2c(c3c4cccc(F)c4[nH]c3c3ccc4ccccc4c23)C(=O)N1O` ?
32.5

Thanks! And C/C=C(\C)C(=O)NC1=CC[C@@]2(C)C(=CCC3C2CC[C@@]2(C)C3CC[C@@H]2C(C)N(C)C)C1=O (stereo not given in full) ?
10.4

Thanks! And `Oc1ccc(C2c3ccccc3Oc3ccccc32)c2cccnc12` ?
20.2

Thanks! And `COc1ccc(/C=C(\C#N)n2nc3cccc(F)c3n2)cc1` ?
104

Thanks! And `C=C1C(=O)O[C@H]2[C@H]1CC/C(CNC(=O)CCc1ccc(OC)cc1)=C\CC[C@@]1(C)O[C@@H]21` ?
79.5

Thanks! And `CC(=O)O[C@H]1Cc2c([nH]c3ccccc23)[C@@H](c2ccc(Cl)cc2)N1C(=O)CCNC(C)(C)C` ?
61.3

Thanks! And `COc1cc2c(=O)n(CCN(C)C)c3c4cc5c(cc4ccc3c2cc1OC)OCO5` ?
0.0226

Thanks! And `C=C1C(=O)O[C@H]2[C@H]1CC/C(CNC(=O)/C=C/c1ccccc1)=C\CC[C@@]1(C)O[C@@H]21` ?
48.1

Thanks! And `Cc1nn(-c2ccccc2)c(Cl)c1/C=N\N=c1/sc2ccccc2n1C` ?
101

Thanks! And `CCCCCCNC(=O)Nc1ccc2cc3ccc(NC(=O)NCCCCCC)cc3nc2c1` ?
-62.8

Thanks! And `Cc1ccc(CNc2c3ccccc3nc3cc(NC(=O)CCN4CCCC4)ccc23)cc1` ?
15.1

Thanks! And `CCCCN1C=CCN(CCCC)C1` ?
58

Thanks! And Cn1ccc2c1CC1CN(Cc3ccco3)C(=O)C1C2C(=O)O (stereo not given) ?
92.6

Thanks! And `NC1=NN=C(N)C1=Cc1cc2ccccc2n2nnnc12` ?
98.6

Thanks! And `COc1cc(/C=C/c2cc(O)c(C(C)=O)c(O)c2)cc2c1O[C@]1(C)CC[C@@H](O)C(C)(C)[C@H]1C2` ?
55.8

Thanks! And `Cn1ccnc1C(=O)/C=C/c1ccc(CC(=O)Nc2ccc(F)cc2)cc1` ?
10

Thanks! And `O=C1Nc2cc(-c3cccc([N+](=O)[O-])c3)ccc2/C1=C/c1ccc[nH]1` ?
97.1

Thanks! And `N#C/C(=C\c1c(-c2ccccc2)[nH]c2ccccc12)C(=O)c1ccc(Cl)cc1` ?
51.4

Thanks! And N#CC1C(C#N)C2c3ccccc3C=CN2C1C(=O)c1ccc(Br)cc1 (stereo not given) ?
95.1

* * *

- Test system: HCT-116 colon
- assay_procedure: NCI-60 one-dose screen, 48 h
- condition: 10 µM unless noted
Compounds without any hit were thinned out: in the full panel of roughly 83,000, 20% have a hit. Calls of active or inactive are those of the source. The calls were made as follows: active = growth percent below 10; inactive = the rest.
Your answer must be one of the following: y = active, n = inactive

Short answer needed: outcome of this test for `CCCCCCOc1ccc(/C=N/Nc2cc(C)nc3ccc(Cl)cc23)cc1` ?
y

Thanks! And `COc1ccc(/C=C/C(=O)Nc2cc(/C=C\c3cc(OC)c(OC)c(OC)c3)cc(OC)c2OC)cc1OC` ?
n

Thanks! And `CC(=O)[C@@H]1CC[C@]2(CO)CC[C@]3(C)[C@H](CC[C@@H]4[C@@]5(C)CCCNC(C)(C)[C@@H]5CC[C@]43C)[C@@H]12` ?
n

Thanks! And `C[C@H]1[C@H](C)CC[C@]2(C(=O)NCC#CCN3CCN(C)CC3)CC[C@]3(C)C(=CC[C@@H]4[C@@]5(C)Cc6c([nH]c7ccccc67)C(C)(C)[C@@H]5CC[C@]43C)[C@H]12` ?
n

Thanks! And `COc1cc(/C=C\c2cc(OC)c(OC)c(OC)c2)cc(NC(=O)/C=C/c2cc(OC)c(OC)c(OC)c2)c1OC` ?
n

Thanks! And `CCCCCCNC(=O)Oc1ccc(/C(=C(\C)c2ccccc2)c2ccc(OCCCN(C)C)cc2)cc1` ?
n

Thanks! And `COc1cccc(-c2nc3occn3c2-c2ccnc(NCCCNS(=O)(=O)c3ccc(C(F)(F)F)cc3)n2)c1` ?
n

Thanks! And `O=C(N/N=C/c1cc2ccccc2n2nnnc12)Nc1ccccc1` ?
n

Thanks! And `Cn1cc(-c2csc(-c3c[nH]c4ccccc34)n2)c2ccnc(Cl)c21` ?
n

Thanks! And `COc1cc2c(=O)n(CCCN(C)C)c3c4cc5c(cc4ccc3c2cc1OC)OCO5` ?
n

Thanks! And `O=c1c2c(c(=O)n1O)c1c3ccc[nH]c3nc1c1nc3[nH]cccc3c12` ?
n

Thanks! And `O=C(NCCNc1nccc(-c2c(-c3cccc(F)c3)nc3sccn23)n1)c1ccc(Cl)cc1` ?
n

Thanks! And `Cc1ccc(-n2cc(-c3ccccc3)c3c2N=NN2CCN=C32)cc1` ?
n

Thanks! And `CCCCCN1C=C/C(=C\C(=O)n2ccc3ccccc32)c2ccccc21` ?
n

Thanks! And `O=S(=O)(NCCNc1nccc(-c2c(-c3cccc(O)c3)nc3occn23)n1)c1cccc(F)c1` ?
n

Thanks! And `COc1cc(NCCCCCNC(C)(C)C)c2ncccc2c1` ?
n

Thanks! And COc1ccc2c(c1)C(=O)CC(c1ccccc1OC)O2 (centres undefined) ?
n

Thanks! And COC(=O)C1=C(C(=O)ON)C2C=CC1(C(Cc1ccccc1)Nc1ccccc1)O2 (centres undefined) ?
y

Thanks! And `COc1cc(C2=C(c3cn(C)c4ccccc34)COC2=O)cc(OC)c1OC` ?
y

* * *

- Tested on: HOP-92 NSCLC
- assay_procedure: NCI-60 one-dose screen, 48 h (100 = growth as untreated, 0 = no growth, -100 = all killed)
- condition: 10 µM unless noted
About 83,000 compounds went through this panel and 20% of them were active in at least one assay; those are over-represented in the sample as a whole.
quantity_measured: growth (%)
# value in %; strip the unit string

Please report the recorded growth for `C[C@H]1[C@H](C)CC[C@]2(C(=O)Nc3ccc4ncccc4c3)CC[C@]3(C)C(=CC[C@@H]4[C@@]5(C)CCCNC(C)(C)[C@@H]5CC[C@]43C)[C@H]12` .
60.2

Thanks! And `CCCCCCOc1ccc(/C=N/Nc2cc(C)nc3ccc(Cl)cc23)cc1` ?
69.5

Thanks! And `O=C1CC(=O)OC(c2ccc([N+](=O)[O-])cc2)O1` ?
36.9

Thanks! And `CCOC(=O)c1nc2c3ccccc3ccn2c1C(=O)OCC` ?
103

Thanks! And `CCOC(=O)c1cc(C(=O)c2cc(OC)cc(OC)c2)n2ccc3ccccc3c12` ?
111

Thanks! And `CNC(=O)c1cccc(Cn2nc(C)c(NC(=O)c3ccc(COc4ccc(C(F)(F)F)cc4C)cc3)c2C)n1` ?
74.4

Thanks! And `O=C(Cn1c[n+](CC(=O)c2ccc([N+](=O)[O-])cc2)c2ccccc21)Nc1cccc2cccnc12` ?
28

Thanks! And `Cn1c(-c2c(N)n(CCCN3CCOCC3)c3nc(C#N)c(C#N)nc23)nc2ccccc21` ?
-6.11

Thanks! And `N#Cc1c(NCc2ccccc2I)sc2c1CCCCC2` ?
88.8
